Property: protein stability index; scope: individual sequences
# PROTOCOL_TEXT: protein stability index of a GFP-peptide fusion (GPS, HEK-293T) (PSI 1-6); higher = more stable;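 further: 24-mer peptide tiles fused after GFP, lentivirally expressed, FACS-sorted into six equal bins by GFP/DsRed ratio, decoded by Illumina sequencing, PSI is the read-weighted mean bin number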
# CONDITION_SET: treatment: MLN4924 1 uM, 8 h; c terminus: a fixed tail appended
Number only, please.

Recorded results for 5 sequences are shown here.
{"RESIDUE_SEQUENCE": "DMNGKSLHGKAIKVEQAKKPSFQS [RBMY1A1]", "READING": 3.61}
{"RESIDUE_SEQUENCE": "QVAMRCRCSSMHFLVAEWNEPSIN [SAT1]", "READING": 2.27}
{"RESIDUE_SEQUENCE": "PETEAVSSSQEIPTMPQPIEKVSV [ZMYND11]", "READING": 5.36}
{"RESIDUE_SEQUENCE": "ISHQQCWASTSPGTDLPLSEIPRG [TRIM15]", "READING": 3.63}
{"RESIDUE_SEQUENCE": "ARTCAKQNINAPAPATTSSWEVVR [C22orf31]", "READING": 3.22}

For the next question, use this sequence.
QUERY: protein stability index for KREREKEDIALNKHRSRRKWCFWN [RHOBTB1] ?
RESULT: 3.07

---

# PROTOCOL_TEXT: protein stability index of a GFP-peptide fusion (GPS, HEK-293T) (PSI 1-6); higher = more stable
# CONDITION_SET: treatment: MLN4924 1 uM, 8 h; c terminus: a fixed tail appended
READOUT_NAME: protein stability index
Keep the answer to the number alone.

# count of solved cases: 3
{"RESIDUE_SEQUENCE": "MASPCSAMAYHHDSRRIFVGQDNG [WDFY1]", "READING": 2.67}
{"RESIDUE_SEQUENCE": "PNLVNLIEVFRRKRKMHLVFEYCD [CDKL4]", "READING": 2.07}
{"RESIDUE_SEQUENCE": "WLQERYEIVGNLGEGTFGKVVECL [CLK3]", "READING": 2.27}

QUERY: Query: protein stability index; subject: PIRCGEVLFAVGGWCSGDAISSVE [KLHL20]
RESULT: 2.34

QUERY: Record: ITRESHTHRDRPSQQQPLRNQVVS [CSNK1G1]
RESULT: 4.37

QUERY: Next sequence: FLSLACARGSIVATYIFIFIGETL [SPNS1]
RESULT: 2.92

QUERY: Cool, now SLDKVQRSLGPRAPSLRRHVLIHN [SERTAD3]
RESULT: 2.96

QUERY: Please do the same for TCVYIAEIAPQHRRGLLVSLNELM [SLC2A12] as well.
RESULT: 2.46

---

# PROTOCOL_TEXT: protein stability index of a GFP-peptide fusion (GPS, HEK-293T) (PSI 1-6); higher = more stable
# CONDITION_SET: treatment: MLN4924 1 uM, 8 h; c terminus: a fixed tail appended
Binary classification by protein stability index, with 3 as an inclusive lower bound for label 1; all other cases are label 0.

QUERY: Reported protein stability index at or above 3? LDVRARLECEINTYRSLLESEDCK [KRT33B]
RESULT: label 1

QUERY: Repeat with LRKSDMLEKEQVAHIRAERDILVE [STK38L]
RESULT: label 1

QUERY: What about this sequence? DLSDLLQVDSLRPASFPTWGCDLG [BRF1]
RESULT: label 0

QUERY: Also need SNTGSESNSATVEEPPTDPIPEDE [SMARCE1] , thanks.
RESULT: label 1

QUERY: Item: GTPGPFTKEGGMLAYYEVCSWKGA [CHIT1]
RESULT: label 0

QUERY: Next: AIILSSCLLGLGSLVLILSLSYTV [SLC2A12]
RESULT: label 1

---

Reported protein stability index by item:
# PROTOCOL_TEXT: protein stability index of a GFP-peptide fusion (GPS, HEK-293T) (PSI 1-6); higher = more stable
# CONDITION_SET: treatment: DMSO; c terminus: a fixed tail appended
The answer should be a number; do not append a unit.

# example entries with known answers
{"RESIDUE_SEQUENCE": "DVNSFVTECEPSELFQLQTYSLPP [CDS1]", "READING": 3.58}
{"RESIDUE_SEQUENCE": "IDRNLREDGEKAAREVKLLLLGAG [GNAI1]", "READING": 3.67}
{"RESIDUE_SEQUENCE": "QQTPVGTPKDKRVSNTPLRTVDGS [PALM]", "READING": 5.07}
{"RESIDUE_SEQUENCE": "RGRASGFAGSMFGSVALGPVCPTV [KRT71]", "READING": 2.7}
{"RESIDUE_SEQUENCE": "HTQAENAEFMRNFQKGQVTRDGFK [HMOX1]", "READING": 4.5}

Note: attention shifts to another entry.
QUERY: Given the entry VIKYNVNDKFSFHEVKDNYIPVIK [RHOBTB3] , report its measured protein stability index.
RESULT: 2.21

---

# PROTOCOL_TEXT: protein stability index of a GFP-peptide fusion (GPS, HEK-293T) (PSI 1-6); higher = more stable
# CONDITION_SET: treatment: MLN4924 1 uM, 8 h; c terminus: a fixed tail appended
Documented protein stability index across a set of sequences

Use these answered entries as a reference point.
{"RESIDUE_SEQUENCE": "LGRELMLQLSEFLCEEFRNRNQRI [CPN1]", "READOUT_NAME": "protein stability index", "READING": 2.26}
{"RESIDUE_SEQUENCE": "SDTEAQCEVMQEIVDQVLEEDFDS [INTS3]", "READOUT_NAME": "protein stability index", "READING": 5.42}
{"RESIDUE_SEQUENCE": "AKQRAKEAQERELRKREKAEEKER [LRRC59]", "READOUT_NAME": "protein stability index", "READING": 5.52}

QUERY: Fill blank: measured protein stability index of the sequence PFLFFGHFWQLFNALTLFNLAQDP [TMEM120A] is ____.
RESULT: 3.08

QUERY: Another sequence: SEKGKPYVDIQGLTASTMEILLDF [KLHL12]
RESULT: 2.25

QUERY: Now the sequence LVAGIGFYQHLLLYIQSHYQLELQ [SMG5]
RESULT: 3.11

QUERY: Also need TCISELRMLQREGCFRSQGASLRL [M1AP] , thanks.
RESULT: 2.19

QUERY: Another sequence to look at: AIKCSPSLHVDDRERMELLEEAKK [RIPK4]
RESULT: 5.28

QUERY: Also, QWGAEPEGSCYQTFRQYCGAACTC [RNF208] please.
RESULT: 3.06

QUERY: Queued: EGHHHDVVACDFSPDGALLATASY [WSB1]
RESULT: 4.03

QUERY: Would you kindly repeat that for ECQYYIDKLEYLDEKQRDPRIEAS [NET1] ?
RESULT: 4.04

QUERY: Quick one: SCKACGYRGMLDTHHKLCTFILKN [EIF5]
RESULT: 2.77

QUERY: Likewise for SATLRSFEGLMGTIKSKVSGGKRA [TPD52L3] ?
RESULT: 3.33

---

# PROTOCOL_TEXT: protein stability index of a GFP-peptide fusion (GPS, HEK-293T) (PSI 1-6); higher = more stable
# CONDITION_SET: treatment: DMSO; c terminus: a fixed tail appended
Decision: protein stability index >= 4 yields Condition met, all other cases yield Condition not met.

{"RESIDUE_SEQUENCE": "FLSLACARGSIVATYIFIFIGETL [SPNS1]", "CATEGORY_LABEL": "Condition not met"}
{"RESIDUE_SEQUENCE": "QKITAIITFPSLESCEEKNQLILT [WDR41]", "CATEGORY_LABEL": "Condition not met"}
{"RESIDUE_SEQUENCE": "LLLAYNSSARIPKCPWMEGGEMSP [INTS4]", "CATEGORY_LABEL": "Condition not met"}

QUERY: Could you verify whether the entry LRLFGRVLERAACLRRCKRTLPAF [P3H4] shows protein stability index of no less than 4?
RESULT: Condition not met

QUERY: Proceed to NCRLQSPYFSPSASFHHKLHHKRL [CBY2]
RESULT: Condition not met

QUERY: Next entry: PEDRPSLDDIIRHDFFLQGFTPDR [PLK2]
RESULT: Condition met

---

# PROTOCOL_TEXT: protein stability index of a GFP-peptide fusion (GPS, HEK-293T) (PSI 1-6); higher = more stable
# CONDITION_SET: treatment: MLN4924 1 uM, 8 h; c terminus: a fixed tail appended
Would you please tag the item Y when its protein stability index is 4 or above, and N when it is below?

{"RESIDUE_SEQUENCE": "LSPISHGNTIALFFRSLLPNYTME [TCF25]", "CATEGORY_LABEL": "N"}

QUERY: Does the reported protein stability index for KKAIKDLGISPSTCSFNPGVIVAN [GLT8D2] fall at or above the 4 mark?
RESULT: N

QUERY: // repeat for PGDMLLQVNEINFENMSNDDAVRV [DVL3] and report
RESULT: Y

QUERY: Same again, this time with KRSWTSAQNACSEHGATLAVIDSE [CD69]
RESULT: Y

QUERY: Consider next the sequence SPSHKGIAAPHAGANVKPRNSTPP [ZC2HC1A] in the same way.
RESULT: Y

QUERY: What do you have for SKRMTFQMPKFDLGPLLSEPLVLY [MYOZ1] ?
RESULT: N

QUERY: For LPAGPLPAPLLVLCPSRAELDRWL [PLEKHN1] then?
RESULT: N

QUERY: Same question, HTQAENAEFMRNFQKGQVTRDGFK [HMOX1] this time
RESULT: Y

QUERY: Then what about the sequence DLDDFAGFSCNQGRYPLIQTLRQE [CHIT1] ?
RESULT: N

QUERY: Same thing, different sequence: QIQRISLNTLTLNVKSEKVYTRHG [FLOT1]
RESULT: N

QUERY: Could you do the same for TALLGGPRRCHSAPPQGSCGDELP [PLEKHN1] , please?
RESULT: Y

QUERY: Lookup PLMKPHRPWADTCSSSGKDGNLCL [HESX1]
RESULT: N

QUERY: Also check AADDFRLKYENELALRQGVEADIN [KRT15]
RESULT: Y

QUERY: Can you check KVTGYLISYSSMLGAVAGLALGPI [MFSD9] next?
RESULT: N

QUERY: Now give it for DFEFLAFWQTQYNNMNAVNLFFAW [PKD2L1] too.
RESULT: N

QUERY: Also PAVDLNQVLNETRNQYEALVETNR [KRT33B] ?
RESULT: N

QUERY: Now consider NSAAATSPKGTLPPAALESSDSAN [CAMK2B] and answer again.
RESULT: Y

QUERY: Would you mind doing GFLPWLMNEVEKTMEYSMVGRTVL [RSPH3] as well?
RESULT: N

QUERY: Proceed to EEERDEEEDKRRKGEEVTPISAIR [EPB41L3]
RESULT: Y
